assay: soluble fraction after stress (log2 fold change); higher = more stays soluble; pooled small domains, quantitative proteomics; settings: stress: pH 4
Use -0.5 as the dividing line for soluble fraction (log2), with the line itself on the YES side and lower values as NO.

[[record]]
primary_sequence = "HMRVTEVSYDKFLDMLSGGQVTVVELQENERELYFKAADENGAERIYSTGVFPDADLQKRLSESGVTF"
answer_label = "NO"

[[record]]
primary_sequence = "HMSTGYEMVREVANQGSFSKAANSLGVSGPAVSKQVKSLEERLGLVLFHRTTRAVSLTQAGRQLVDVLN"
answer_label = "YES"

[[record]]
primary_sequence = "HMDIYLDDINRKILHLLSQGVKTKSLRDYIDLSMSAIEKRKKHLKDLFLIEDGKDETLLSEARKKGF"
answer_label = "YES"

[[record]]
primary_sequence = "HMGTSFEDIDRAVKSVRKPETDEAEKLHAGKTFKDIAETELFQKLTESFAGISDRVNEVIDLYTARAAE"
answer_label = "YES"

[[record]]
primary_sequence = "HMQVTEVDYGTFMKMVEEKNVGEVEVGNSMIVFTDKDGKAIYKTGAMNDPNLTERLYNAGASFTKE"
answer_label = "YES"

[[record]]
primary_sequence = "HMNVDSLVGSEARVTAEIDNRKETGTAMVNGQEWTARAESDEEIYPVGTIVEIRKIQGVKLIVSTH"
answer_label = "YES"

[[record]]
primary_sequence = "HMEVKRANRKERFLEALPYQFSRQDYLNIADKNKIPHKTAEGYITKFVDAGLIHREAHNNYTNPTKA"
answer_label = "YES"

[[record]]
primary_sequence = "HMRIYFSPSEIGFYHESDKQAYLLAGTWPNDLLEISEKWFLYLLEGQQKGKVITVNDYDQPVLVD"
answer_label = "NO"

[[record]]
primary_sequence = "HMQISYDVPNLIGKSYEEVMTDPSILGEHFTVVLGETKTDEDTDAGVILHQDPAADSKVQDEVTPITVTVS"
answer_label = "YES"

[[record]]
primary_sequence = "HMLLQTRQRHEALAALGYFKGDVAAAWGPASEEALRAAQAAFGITVDGKWGPQTEDAIQGALQV"
answer_label = "NO"

[[record]]
primary_sequence = "HMPSSAYGPYKNVFLSNSELTKLKNELPTSWEHYINRLSEYMRSTGRQYQSHAATILRWAATDRNS"
answer_label = "YES"

[[record]]
primary_sequence = "HMDSDFIKIEVLFNERNRLDLKAMMEASGFTDRGQFLSIMADLTGDENWDRNLDRGDIFYLPRSFTI"
answer_label = "NO"

[[record]]
primary_sequence = "HMFVTFFHELKSAGVPVSLREYLTLMEAMDRDLASRRVEEFYYLARTALVKDERNLDKFDRVFGHVFKGL"
answer_label = "NO"

[[record]]
primary_sequence = "HMEVKEVDYSAFMTMTEENSISKVEIEENQILFKKKGDDQTTYKTARMDDPALITRLHDQGVDFTGQ"
answer_label = "YES"

[[record]]
primary_sequence = "HMNIWNEWAFKKWIESDEYTGPDMTDFGHRTLVDEEFSKQYKEQMSLFKERVLTDDEFSAKYGDL"
answer_label = "NO"

[[record]]
primary_sequence = "HMGITDHIYQDLKKRLENGNYPAGTRFPSESTLADEFSVNKMTMNKIVSMLAEQGYLIRGNRGAGTRVAEN"
answer_label = "YES"

[[record]]
primary_sequence = "HMESRRVTLLLPYDKAGIADTLRREAAVLSLEYGEDGVTVEAVVKPELWGLVREYVQNDNPK"
answer_label = "YES"

[[record]]
primary_sequence = "HMAPPIQQQVESLMNSFAKIGVTVPMLESRLQHAMSAVTANELVMLRKIGASIRDGFATVAEQFPA"
answer_label = "YES"

[[record]]
primary_sequence = "HMVINTRHTGFVVDDLERFINFYLGLGLKLISRKVESGEYIDKLVGLKGTKLEWAKLSLPDNSMIEILKYH"
answer_label = "YES"

[[record]]
primary_sequence = "HMRAEPNSNYSLAIIYKNRYDIAVKKKDAVKEVEYGKMVYEYLNKYVVLSGNKSAKYKKILNYFSSY"
answer_label = "YES"

[[record]]
primary_sequence = "HMSTTYAPYLLGETEQEAIRMARNAGLDPQVVRQSDKSEAGTVILQSHDFGFAMKRGAVILITVSSGPLQ"
answer_label = "YES"

[[record]]
primary_sequence = "HMPANVELLRTFTNKTGTKIKARIVAVSDNKVKLIRDDSKKFIVPIDSLSEEDQKYLKDWIANEVGEQ"
answer_label = "YES"

[[record]]
primary_sequence = "HMTNVIPKAMAPFNGSTIIADGIKNIKDHIDNLYITVGYKGATLSEHVINKGVSAVFNTTGKGNAWWVYN"
answer_label = "YES"

[[record]]
primary_sequence = "HMDSEEVYQMTKHKMDAAQISVAKRIHINLVLVKLLELHHLGYDLRHYHAQHHAFIKRLNLPEYFRFD"
answer_label = "NO"

[[record]]
primary_sequence = "HMNQWQLLSEDGAILGTRVLYHPHETEQPFTRSLSGVKIPAHVQSVTIRAGDLVHGFGGREIQMQLPPIV"
answer_label = "YES"

[[record]]
primary_sequence = "HMPVSVAEQKQILAEALQERGHATFRELIENADNRMIVVGRFLALLELYRDGTVRFEQERALGELTIHWEE"
answer_label = "NO"

[[record]]
primary_sequence = "HMTIGIGKSLDFNTSGEKAYRIYNFKGAYVGTFKASDMTSLKNEVQKSNVKAGAYMVRSLDGHVNRLIEIK"
answer_label = "YES"

[[record]]
primary_sequence = "HMDGDVAVKGGDGVLEVRLANAANVRVYNLAGRLMADYTGTELHMPLPKGVYMVVAGDNRTKVVV"
answer_label = "YES"

[[record]]
primary_sequence = "HMPGPAEMPGWITARAKKLGGQITPEAARALAAEMGSDTEQASREIEKLLTYVDYRRPVEEEDVALLTA"
answer_label = "YES"

[[record]]
primary_sequence = "HMIMNDIQAKVLEIAETKDLGSITYYRLSKMLGVDHPYRVKYAIDKLIEKGLLTAKSDGSITKAI"
answer_label = "YES"

[[record]]
primary_sequence = "HMSVPEDLYFRELEVEGNKVRISGIASTNNRVSALMRNFDQSEWFRDPSLIKVESKSPGVNEFEIVMTRI"
answer_label = "NO"

[[record]]
primary_sequence = "HMATPTMEDYIEVIYSLVKTKGYARSADIAEKLEVYPSTVTKMLKKLDAEGYIVYEKYRGIALTDIGKKMG"
answer_label = "YES"

[[record]]
primary_sequence = "HMVPLTPGELVGTEVRVLWWKEGRGEVIASSRGHQLTLEAHSEDPLRAGSTAVVLEAADDVLVVTS"
answer_label = "NO"

